# target-system: UniProt:Q9NP59
# Sequence (Q9NP59 whole entry): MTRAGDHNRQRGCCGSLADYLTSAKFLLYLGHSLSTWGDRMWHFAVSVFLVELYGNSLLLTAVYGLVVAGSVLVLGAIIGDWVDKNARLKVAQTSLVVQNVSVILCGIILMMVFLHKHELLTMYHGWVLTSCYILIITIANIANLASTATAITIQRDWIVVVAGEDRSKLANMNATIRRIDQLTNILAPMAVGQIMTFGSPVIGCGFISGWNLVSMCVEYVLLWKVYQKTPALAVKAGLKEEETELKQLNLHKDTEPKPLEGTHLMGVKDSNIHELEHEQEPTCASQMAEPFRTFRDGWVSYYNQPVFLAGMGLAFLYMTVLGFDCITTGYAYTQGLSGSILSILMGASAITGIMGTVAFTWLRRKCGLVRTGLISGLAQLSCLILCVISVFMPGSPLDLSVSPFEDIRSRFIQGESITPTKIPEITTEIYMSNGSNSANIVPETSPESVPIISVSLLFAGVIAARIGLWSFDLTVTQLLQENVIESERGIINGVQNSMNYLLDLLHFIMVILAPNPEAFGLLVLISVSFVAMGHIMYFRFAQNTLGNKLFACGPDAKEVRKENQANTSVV
# assay-info: T47D cell-based ferroportin internalization assay in presence of mouse serum albumin (MSA), AF647 detection peptide, flow cytometry
# experimental-setup: second Table 6D, T47D/MSA data; with mouse serum albumin
Starred links: 1 amine or outer side, 2 acyl side, 3 side chain; linkers in the order of their positions; H or OH if unused. Non-standard residues stand in square brackets, D forms with d. Residues, ends and D or L forms follow the SMILES beside them. Groups on a side chain read outwards from the residue. *: point of attachment. Dip = N[C@H](C(=O)O)C(c1ccccc1)c1ccccc1; γGlu = O=C(O)[C@H](CCC(=O)[*:2])N[*:1]; Palmitoyl = CCCCCCCCCCCCCCCC(=O)*; β3hF = N[C@H](CC(=O)O)Cc1ccccc1; Isovaleryl = CC(C)CC(=O)*
measurement-label: IC50
Record the result as a number with its unit.

[ask] State the recorded IC50 for this entry: CCCCCCCCCCCCCCCC(=O)N[C@@H](CCC(=O)NCCCC[C@H](NC(=O)[C@@H](NC(=O)[C@H](C)NC(=O)[C@@H]1CCCN1C(=O)[C@@H](NC(=O)[C@H](Cc1c[nH]cn1)NC(=O)[C@@H](NC(=O)[C@H](CCC(=O)O)NC(=O)CC(C)C)[C@@H](C)O)C(c1ccccc1)c1ccccc1)[C@@H](C)CC)C(=O)N[C@H](CC(=O)N[C@H](CCCCN)C(N)=O)Cc1ccccc1)C(=O)O [compound 131] (Isovaleryl-ETH[Dip]PAIK([γGlu-Palmitoyl])[β3hF][dK]-NH2)
[reply] 13.3 nM
